Source of measurements: paper PMC10876669

# System: IP3K-KD (human IP3K-KD A isoform, residues 187–461) (Homo sapiens)
# Construct: human IP3K-KD A isoform (residues 187–461); GST (cleaved yes)
# Experiment Description: Ligand displacement assay: fluorescence polarization (anisotropy) of 2-FITC-InsP3/IP3K-KD complex
# Condition Set: estimated Ki (Kd) from IC50 with [2-FITC-InsP3] 2 nM and its Kd 68 nM; read-out: Kd inferred from IC50 (Cheng and Prusoff)
Measured Kd, listed per entry.

[
  {
    "Molecule": "O=P(O)(O)O[C@@H]1[C@@H](O)[C@H](OP(=O)(O)O)[C@@H](OP(=O)(O)O)[C@H](OP(=O)(O)O)[C@H]1O",
    "Kd": "50 nM"
  }
]

Query :: Provide value of Kd for this record tested with IP3K-KD (human IP3K-KD A isoform, residues 187–461) (Homo sapiens): O=P(O)(O)O[C@H]1O[C@H](CO)[C@@H](OP(=O)(O)O)[C@H](OP(=O)(O)O)[C@H]1O [6b–s, α-D-glucopyranosyl 1,3,4-trisphosphate]
Result :: 8720 nM

Query :: Provide value of Kd for this record tested with IP3K-KD (human IP3K-KD A isoform, residues 187–461) (Homo sapiens): O=P(O)(O)O[C@@H]1O[C@H](CO)[C@@H](OP(=O)(O)O)[C@H](OP(=O)(O)O)[C@H]1O [6a–s, β-D-glucopyranosyl 1,3,4-trisphosphate]
Result :: 199 nM

Query :: Provide value of Kd for this record tested with IP3K-KD (human IP3K-KD A isoform, residues 187–461) (Homo sapiens): O=P(O)(O)O[C@@H]1[C@H](O)[C@H](O)[C@@H](OP(=O)(O)O)[C@H](OP(=O)(O)O)[C@H]1O [InsP3, D-myo-inositol 1,4,5-trisphosphate, reference compound]
Result :: 136 nM

====

# System: IP3K-KD (human IP3K-KD A isoform, residues 187–461) (Homo sapiens)
# Construct: human IP3K-KD A isoform (residues 187–461); GST (cleaved yes); made in house; host or cells: Escherichia coli BL21 star (DE3)
# Experiment Description: Fluorescence thermal shift analysis (Tycho NT.6, inflection temperature Ti)
# Type: binding
# Condition Set: source data of Fig. 6c, N 3
Measured Transition 2 DTi (Ti-Ti Apo), listed per entry.

[
  {
    "Compound": "O=P(O)(O)O[C@@H]1[C@@H](O)[C@H](CO)[C@@H](OP(=O)(O)O)[C@H](OP(=O)(O)O)[C@H]1O (racemic)",
    "System": "IP3K-KD (human IP3K-KD A isoform, residues 187–461) (Homo sapiens)",
    "Metric": "Transition 2 DTi (Ti-Ti Apo)",
    "Result": 3.2
  },
  {
    "Compound": "O=P(O)(O)OC[C@@H]1O[C@H](CO)[C@@H](OP(=O)(O)O)[C@H](OP(=O)(O)O)[C@H]1O",
    "System": "IP3K-KD (human IP3K-KD A isoform, residues 187–461) (Homo sapiens)",
    "Metric": "Transition 2 DTi (Ti-Ti Apo)",
    "Result": 2.3
  }
]

Query :: Sample O=P(O)(O)O[C@@H]1[C@@H](O)[C@@H](O)[C@@H](OP(=O)(O)O)[C@H](OP(=O)(O)O)[C@H]1O [2-s, D-myo-inositol 1,4,6-trisphosphate] — what was its Transition 2 DTi (Ti-Ti Apo)?
Result :: 4.6

Query :: Sample O=P(O)(O)O[C@@H]1[C@@H](O)[C@H](OP(=O)(O)O)[C@@H](OP(=O)(O)O)[C@H](OP(=O)(O)O)[C@H]1O — what was its Transition 2 DTi (Ti-Ti Apo)?
Result :: 6.1

====

# System: IP3K-KD (human IP3K-KD A isoform, residues 187–461) (Homo sapiens, UniProt P23677)
# Construct: human IP3K-KD A isoform (residues 187–461); GST (cleaved yes); made in house; host or cells: Escherichia coli BL21 star (DE3)
# Sequence (P23677 187-461): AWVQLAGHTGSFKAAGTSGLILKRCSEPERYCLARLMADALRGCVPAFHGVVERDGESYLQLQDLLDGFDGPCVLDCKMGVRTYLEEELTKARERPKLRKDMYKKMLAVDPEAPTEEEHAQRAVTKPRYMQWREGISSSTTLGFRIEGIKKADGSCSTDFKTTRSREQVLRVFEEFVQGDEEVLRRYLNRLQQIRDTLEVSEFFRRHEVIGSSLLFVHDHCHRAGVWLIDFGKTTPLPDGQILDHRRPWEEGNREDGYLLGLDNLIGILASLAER
# Experiment Description: Fluorescence thermal shift analysis (Tycho NT.6, inflection temperature Ti)
# Type: binding
# Condition Set: source data of Fig. 6c, N 3
Metric: Transition 2 Ti Mean

Query :: Provide value of Transition 2 Ti Mean for this record tested with IP3K-KD (human IP3K-KD A isoform, residues 187–461) (Homo sapiens, UniProt P23677): O=P(O)(O)O[C@@H]1[C@@H](O)[C@H](OP(=O)(O)O)[C@@H](OP(=O)(O)O)[C@H](OP(=O)(O)O)[C@H]1O [1-p]
Result :: 59.9

Query :: Provide value of Transition 2 Ti Mean for this record tested with IP3K-KD (human IP3K-KD A isoform, residues 187–461) (Homo sapiens, UniProt P23677): CO[C@@H]1O[C@H](CO)[C@@H](O[C@H]2O[C@H](CO)[C@@H](OP(=O)(O)O)[C@H](OP(=O)(O)O)[C@H]2O)[C@H]1OP(=O)(O)O [compound 8, ribophostin]
Result :: 54.1

Query :: Provide value of Transition 2 Ti Mean for this record tested with IP3K-KD (human IP3K-KD A isoform, residues 187–461) (Homo sapiens, UniProt P23677): O=P(O)(O)O[C@@H]1[C@@H](O)[C@@H](O)[C@@H](OP(=O)(O)O)[C@H](OP(=O)(O)O)[C@H]1O [2-s, D-myo-inositol 1,4,6-trisphosphate]
Result :: 58.4

Query :: Provide value of Transition 2 Ti Mean for this record tested with IP3K-KD (human IP3K-KD A isoform, residues 187–461) (Homo sapiens, UniProt P23677): O=P(O)(O)OC[C@H]1O[C@H](CO)[C@@H](OP(=O)(O)O)[C@H](OP(=O)(O)O)[C@H]1O [7b–s]
Result :: 54.4

Query :: Provide value of Transition 2 Ti Mean for this record tested with IP3K-KD (human IP3K-KD A isoform, residues 187–461) (Homo sapiens, UniProt P23677): O=P(O)(O)O[C@@H]1[C@@H](O)[C@H](O)[C@@H](OP(=O)(O)O)[C@H](OP(=O)(O)O)[C@H]1O [1-s, L-scyllo-inositol 1,2,4-trisphosphate]
Result :: 60.7

Query :: Provide value of Transition 2 Ti Mean for this record tested with IP3K-KD (human IP3K-KD A isoform, residues 187–461) (Homo sapiens, UniProt P23677): O=P(O)(O)O[C@H]1O[C@H](CO)[C@@H](OP(=O)(O)O)[C@H](OP(=O)(O)O)[C@H]1O [6b–s, α-D-glucopyranosyl 1,3,4-trisphosphate]
Result :: 54.6

====

Measured Ti, transition 2 (mean inflection temperature), listed per entry.
# System: IP3K-KD (human IP3K-KD A isoform, residues 187–461) (Homo sapiens)
# Construct: human IP3K-KD A isoform (residues 187–461); GST (cleaved yes); made in house; host or cells: Escherichia coli BL21 star (DE3)
# Experiment Description: Fluorescence thermal shift analysis (Tycho NT.6, inflection temperature Ti)
# Format: binding
# Condition Set: 10 μM IP3K-KD, 100 μM chiral or 200 μM racemic ligand, AMP-PNP or ADP, 100 μM MgCl2; mean ± SD, n=3

Consider the reported Ti, transition 2 (mean inflection temperature) for these molecules:
[
  {
    "Molecule": "O=P(O)(O)O[C@@H]1[C@@H](O)[C@@H](O)[C@@H](OP(=O)(O)O)[C@H](OP(=O)(O)O)[C@H]1O [2-s, D-myo-inositol 1,4,6-trisphosphate]",
    "System": "IP3K-KD (human IP3K-KD A isoform, residues 187–461) (Homo sapiens)",
    "Result": "58.4 ± 0.2 ºC"
  },
  {
    "Molecule": "O=P(O)(O)OC[C@@H]1O[C@H](CO)[C@@H](OP(=O)(O)O)[C@H](OP(=O)(O)O)[C@H]1O",
    "System": "IP3K-KD (human IP3K-KD A isoform, residues 187–461) (Homo sapiens)",
    "Result": "56.1 ± 0.3 ºC"
  },
  {
    "Molecule": "O=P(O)(O)O[C@@H]1[C@@H](O)[C@H](OP(=O)(O)O)C[C@@H](O)[C@H]1OP(=O)(O)O",
    "System": "IP3K-KD (human IP3K-KD A isoform, residues 187–461) (Homo sapiens)",
    "Result": "57.4 ± 0.1 ºC"
  }
]

Query :: Sample O=P(O)(O)O[C@H]1O[C@H](CO)[C@@H](OP(=O)(O)O)[C@H](OP(=O)(O)O)[C@H]1O [6b–s, α-D-glucopyranosyl 1,3,4-trisphosphate] — what was its Ti, transition 2 (mean inflection temperature)?
Result :: 54.6 ± 0.0 ºC

Query :: Sample O=P(O)(O)O[C@@H]1[C@@H](O)[C@H](OP(=O)(O)O)[C@@H](OP(=O)(O)O)[C@H](OP(=O)(O)O)[C@H]1O — what was its Ti, transition 2 (mean inflection temperature)?
Result :: 59.9 ± 0.2 ºC

Query :: Sample O=P(O)(O)OCC1C(O)C(OP(=O)(O)O)C(O)C(OP(=O)(O)O)C1OP(=O)(O)O (racemic) — what was its Ti, transition 2 (mean inflection temperature)?
Result :: 57.6 ± 0.1 ºC

Query :: Sample O=P(O)(O)O[C@@H]1O[C@H](CO)[C@@H](OP(=O)(O)O)[C@H](OP(=O)(O)O)[C@H]1O [6a–s, β-D-glucopyranosyl 1,3,4-trisphosphate] — what was its Ti, transition 2 (mean inflection temperature)?
Result :: 57.3 ± 0.1 ºC
